The compounds listed here are annotated with their Emax.
- targetDesc: P2X4 (Homo sapiens, UniProt Q99571)
- Sequence (Q99571 whole entry): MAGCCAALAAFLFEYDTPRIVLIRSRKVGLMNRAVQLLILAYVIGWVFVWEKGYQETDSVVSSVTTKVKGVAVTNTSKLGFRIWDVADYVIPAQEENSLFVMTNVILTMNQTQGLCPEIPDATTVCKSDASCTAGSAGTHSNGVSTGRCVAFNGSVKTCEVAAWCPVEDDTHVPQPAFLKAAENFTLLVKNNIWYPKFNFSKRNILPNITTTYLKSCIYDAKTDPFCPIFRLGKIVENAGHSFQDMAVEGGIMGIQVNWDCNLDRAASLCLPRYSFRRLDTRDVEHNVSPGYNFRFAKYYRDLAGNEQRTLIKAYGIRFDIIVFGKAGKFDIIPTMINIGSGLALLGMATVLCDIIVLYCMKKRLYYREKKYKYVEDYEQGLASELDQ
- testDescription: Assay B: human P2X4 receptor cell line, mitochondrial photina luminescence (agonist Bz-ATP at EC50)
- Assay type: cell-based
- Parameters: host or cells: HEK 293 (recombinant, constitutively expressing; with mitochondrial photina in Assay B)
- particulars: HEK human P2X4 cell line, photina luminescence, agonist Bz-ATP at EC50, average; read-out: human P2X4 Assay B avg Efficacy
Respond with the figure and its unit, in that order.

Use the examples below as a reference point.
| compound | targetDesc | reading |
| --- | --- | --- |
| NS(=O)(=O)c1cc(NC(=O)Cc2ccccc2)ccc1Oc1ccc(Cl)cc1 | P2X4 (Homo sapiens, UniProt Q99571) | 53% |
| N#Cc1ccccc1CC(=O)Nc1ccc(Oc2cccc(Cl)c2)c(S(N)(=O)=O)c1 | P2X4 (Homo sapiens, UniProt Q99571) | 98% |
| NS(=O)(=O)c1cc(NC(=O)Cc2c(Cl)cc(C(F)(F)F)cc2Cl)ccc1Oc1ccc(Cl)cc1 | P2X4 (Homo sapiens, UniProt Q99571) | 71% |

State the recorded Emax for this entry: NS(=O)(=O)c1cc(NC(=O)Cc2cccc(F)c2)ccc1Oc1cccc(Cl)c1 57%

And then NS(=O)(=O)c1cc(NC(=O)Cc2ccncc2)ccc1Oc1cccc(Cl)c1 , what is it? 71%

And then C=C(C)c1ccccc1Oc1ccc(NC(=O)Cc2ccccc2Cl)cc1S(N)(=O)=O , what is it? 56%

And then NS(=O)(=O)c1cc(NC(=O)Cc2ccccc2Cl)c(Cl)cc1Oc1cccc(Cl)c1 , what is it? 33%

And then NS(=O)(=O)c1cc(NC(=O)Cc2cc3c(cc2Cl)OCCO3)ccc1Oc1cccc(Cl)c1 , what is it? 45%
